These measurements were taken from the supplement of paper PMC10567573.

B1: FBXO39 (parent)
chain: RVFKARIYTNRYETNEEDKTLQEI

# Variants of: B1
# EXPERIMENTAL PROTOCOL: protein stability index of a GFP-peptide fusion (GPS, HEK-293T) (PSI 1-6); higher = more stable;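 further: lentivirally expressed fusions sorted by FACS into six bins by GFP to DsRed ratio, PSI derived from sequencing read proportions per bin multiplied by bin number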
# CONDITION CONTEXT: c terminus: a fixed tail appended
# key: entry, value: protein stability index

**Q:** Fill in: protein stability index of `D18Q` is ___
**A:** 2.78

**Q:** Look at this variant and give its reported protein stability index. `Q22M`
**A:** 2.5

**Q:** State the recorded protein stability index for this entry: `E17Q`
**A:** 2.33

**Q:** Return reported protein stability index; argument: `T20R`
**A:** 2.77

**Q:** Would you kindly share the measured protein stability index for `D18W` ?
**A:** 2.18

**Q:** Given the entry `D18Y` , report its measured protein stability index.
**A:** 2.78

**Q:** Sample `R11G` — what was its protein stability index?
**A:** 3.36

**Q:** # input variant: `Q22S` ; wanted: its protein stability index
**A:** 1.12

**Q:** Would you mind telling me what protein stability index value was observed for `R11Y` ?
**A:** 2.5

**Q:** # input variant: `Q22L` ; wanted: its protein stability index
**A:** 2.33
